System: granulocytes
Experiment Description: peptidase activity in leukemia and non-leukemia patients, granulocytes (Table 6C)
Format: cell-based, human
Set-up: unit not given here
Details: N192 normal
Parameter: enzyme activity, Grans

[
  {
    "Molecule": "CC(C)[C@H](N)C(=O)N[C@@H](CO)C(=O)Nc1ccc2c(c1)Oc1cc(NC(=O)[C@H](CO)NC(=O)[C@@H](N)C(C)C)ccc1C21OC(=O)c2ccccc21 [VS, (H-L-Val--Ser)2 Rho 110 .2TFA]",
    "Test System": "granulocytes",
    "Test Value": 0.40
  },
  {
    "Molecule": "NCC(=O)N1CCC[C@H]1C(=O)Nc1ccc2c(c1)Oc1cc(NC(=O)[C@@H]3CCCN3C(=O)CN)ccc1C21OC(=O)c2ccccc21 [GP, (H-Gly--Pro)2 Rho .2TFA]",
    "Test System": "granulocytes",
    "Test Value": 11.22
  },
  {
    "Molecule": "NCCCC[C@H](N)C(=O)Nc1ccc2c(c1)Oc1cc(NC(=O)[C@@H](N)CCCCN)ccc1C21OC(=O)c2ccccc21 [LYS, (H-L-Lys)2 Rho 110 .4TFA]",
    "Test System": "granulocytes",
    "Test Value": 1.20
  },
  {
    "Molecule": "C[C@H](N)C(=O)Nc1ccc2c(c1)Oc1cc(NC(=O)[C@H](C)N)ccc1C21OC(=O)c2ccccc21",
    "Test System": "granulocytes",
    "Test Value": 154.84
  }
]

###

Listing of entries alongside the reported enzyme activity, Lymphs.
System: lymphocytes
Experiment Description: peptidase activity in leukemia and non-leukemia patients, lymphocytes (Table 6C)
Assay type: cell-based, human
Design: unit not given here
Details: J4 11/21/91 acute leuk.
Parameter: enzyme activity, Lymphs

[
  {
    "Compound": "NC(=O)CC[C@H](N)C(=O)N[C@@H](CO)C(=O)Nc1ccc2c(c1)Oc1cc(NC(=O)[C@H](CO)NC(=O)[C@@H](N)CCC(N)=O)ccc1C21OC(=O)c2ccccc21 [QS, (H-L-Gln--Ser)2 Rho 110 .2TFA]",
    "Parameter": "enzyme activity, Lymphs",
    "Test Value": 0.05
  },
  {
    "Compound": "CC(C)C[C@H](N)C(=O)NCC(=O)Nc1ccc2c(c1)Oc1cc(NC(=O)CNC(=O)[C@@H](N)CC(C)C)ccc1C21OC(=O)c2ccccc21",
    "Parameter": "enzyme activity, Lymphs",
    "Test Value": 0.16
  },
  {
    "Compound": "NCC(=O)N1CCC[C@H]1C(=O)Nc1ccc2c(c1)Oc1cc(NC(=O)[C@@H]3CCCN3C(=O)CN)ccc1C21OC(=O)c2ccccc21 [GP, (H-Gly--Pro)2 Rho .2TFA]",
    "Parameter": "enzyme activity, Lymphs",
    "Test Value": 2.72
  },
  {
    "Compound": "C[C@H](N)C(=O)Nc1ccc2c(c1)Oc1cc(NC(=O)[C@H](C)N)ccc1C21OC(=O)c2ccccc21",
    "Parameter": "enzyme activity, Lymphs",
    "Test Value": 86.00
  },
  {
    "Compound": "O=C1OC2(c3ccc(NC(=O)[C@@H]4CCCN4)cc3Oc3cc(NC(=O)[C@@H]4CCCN4)ccc32)c2ccccc21 [PRO, (H-L-Pro)2 --Rho 110 .2TFA]",
    "Parameter": "enzyme activity, Lymphs",
    "Test Value": 0.47
  },
  {
    "Compound": "NCCCC[C@H](N)C(=O)Nc1ccc2c(c1)Oc1cc(NC(=O)[C@@H](N)CCCCN)ccc1C21OC(=O)c2ccccc21 [LYS, (H-L-Lys)2 Rho 110 .4TFA]",
    "Parameter": "enzyme activity, Lymphs",
    "Test Value": 0.77
  },
  {
    "Compound": "CC(C)[C@H](N)C(=O)N[C@@H](CO)C(=O)Nc1ccc2c(c1)Oc1cc(NC(=O)[C@H](CO)NC(=O)[C@@H](N)C(C)C)ccc1C21OC(=O)c2ccccc21 [VS, (H-L-Val--Ser)2 Rho 110 .2TFA]",
    "Parameter": "enzyme activity, Lymphs",
    "Test Value": 0.05
  },
  {
    "Compound": "C[C@@H](O)[C@H](N)C(=O)N1CCC[C@H]1C(=O)Nc1ccc2c(c1)Oc1cc(NC(=O)[C@@H]3CCCN3C(=O)[C@@H](N)[C@@H](C)O)ccc1C21OC(=O)c2ccccc21 [TP, (H-L-Thr--Pro)2 Rho 110 .2TFA]",
    "Parameter": "enzyme activity, Lymphs",
    "Test Value": 2.30
  }
]

###

Tested on: granulocytes
Experiment Description: peptidase activity in leukemia and non-leukemia patients, granulocytes (Table 6C)
Assay type: cell-based, human
Design: unit not given here
Details: J22 12/2/91 A M L
Let's look at some molecules and their measured enzyme activity, Grans.
Parameter: enzyme activity, Grans

[
  {
    "Molecule": "C[C@@H](O)[C@H](N)C(=O)N1CCC[C@H]1C(=O)Nc1ccc2c(c1)Oc1cc(NC(=O)[C@@H]3CCCN3C(=O)[C@@H](N)[C@@H](C)O)ccc1C21OC(=O)c2ccccc21 [TP, (H-L-Thr--Pro)2 Rho 110 .2TFA]",
    "Parameter": "enzyme activity, Grans",
    "Test Value": 2.33
  },
  {
    "Molecule": "NCC(=O)N1CCC[C@H]1C(=O)Nc1ccc2c(c1)Oc1cc(NC(=O)[C@@H]3CCCN3C(=O)CN)ccc1C21OC(=O)c2ccccc21 [GP, (H-Gly--Pro)2 Rho .2TFA]",
    "Parameter": "enzyme activity, Grans",
    "Test Value": 13.98
  },
  {
    "Molecule": "C[C@H](N)C(=O)Nc1ccc2c(c1)Oc1cc(NC(=O)[C@H](C)N)ccc1C21OC(=O)c2ccccc21",
    "Parameter": "enzyme activity, Grans",
    "Test Value": 157.12
  },
  {
    "Molecule": "CC(C)[C@H](N)C(=O)N[C@@H](CO)C(=O)Nc1ccc2c(c1)Oc1cc(NC(=O)[C@H](CO)NC(=O)[C@@H](N)C(C)C)ccc1C21OC(=O)c2ccccc21 [VS, (H-L-Val--Ser)2 Rho 110 .2TFA]",
    "Parameter": "enzyme activity, Grans",
    "Test Value": 0.22
  },
  {
    "Molecule": "NC(=O)CC[C@H](N)C(=O)N[C@@H](CO)C(=O)Nc1ccc2c(c1)Oc1cc(NC(=O)[C@H](CO)NC(=O)[C@@H](N)CCC(N)=O)ccc1C21OC(=O)c2ccccc21 [QS, (H-L-Gln--Ser)2 Rho 110 .2TFA]",
    "Parameter": "enzyme activity, Grans",
    "Test Value": 0.10
  }
]

###

Tested on: monocytes
Experiment Description: aberrant enzyme activities in febrile children, monocytes (Table 7)
Format: cell-based, human
Details: P88 Enteritis

[
  {
    "Compound": "CC(=O)Oc1ccc2c(c1)Oc1cc(OC(C)=O)ccc1C21OC(=O)c2ccccc21 [FDA-NAF, fluorescein diacetate, reference compound]",
    "aberrant enzyme activity, MONOS": ".smallcircle."
  }
]

###

Tested on: granulocytes
Experiment Description: peptidase activity in leukemia and non-leukemia patients, granulocytes (Table 6C)
Type: cell-based, human
Design: unit not given here
Details: N191 normal
Each entry below carries its reported enzyme activity, Grans.
Parameter: enzyme activity, Grans

[
  {
    "Compound": "C[C@@H](O)[C@H](N)C(=O)N1CCC[C@H]1C(=O)Nc1ccc2c(c1)Oc1cc(NC(=O)[C@@H]3CCCN3C(=O)[C@@H](N)[C@@H](C)O)ccc1C21OC(=O)c2ccccc21 [TP, (H-L-Thr--Pro)2 Rho 110 .2TFA]",
    "Parameter": "enzyme activity, Grans",
    "Test Value": 4.73
  },
  {
    "Compound": "CC(C)[C@H](N)C(=O)N[C@@H](CO)C(=O)Nc1ccc2c(c1)Oc1cc(NC(=O)[C@H](CO)NC(=O)[C@@H](N)C(C)C)ccc1C21OC(=O)c2ccccc21 [VS, (H-L-Val--Ser)2 Rho 110 .2TFA]",
    "Parameter": "enzyme activity, Grans",
    "Test Value": 0.64
  },
  {
    "Compound": "NCCCC[C@H](N)C(=O)Nc1ccc2c(c1)Oc1cc(NC(=O)[C@@H](N)CCCCN)ccc1C21OC(=O)c2ccccc21 [LYS, (H-L-Lys)2 Rho 110 .4TFA]",
    "Parameter": "enzyme activity, Grans",
    "Test Value": 1.20
  }
]

###

System: granulocytes
Experiment Description: peptidase activity in leukemia and non-leukemia patients, granulocytes (Table 6C)
Assay type: cell-based, human
Parameters: unit not given here
Details: P70 cirrhosis/hemobilia

[
  {
    "Compound": "CC(C)[C@H](N)C(=O)N[C@@H](CO)C(=O)Nc1ccc2c(c1)Oc1cc(NC(=O)[C@H](CO)NC(=O)[C@@H](N)C(C)C)ccc1C21OC(=O)c2ccccc21 [VS, (H-L-Val--Ser)2 Rho 110 .2TFA]",
    "enzyme activity, Grans": 0.26
  },
  {
    "Compound": "O=C1OC2(c3ccc(NC(=O)[C@@H]4CCCN4)cc3Oc3cc(NC(=O)[C@@H]4CCCN4)ccc32)c2ccccc21 [PRO, (H-L-Pro)2 --Rho 110 .2TFA]",
    "enzyme activity, Grans": 0.66
  },
  {
    "Compound": "C[C@@H](O)[C@H](N)C(=O)N1CCC[C@H]1C(=O)Nc1ccc2c(c1)Oc1cc(NC(=O)[C@@H]3CCCN3C(=O)[C@@H](N)[C@@H](C)O)ccc1C21OC(=O)c2ccccc21 [TP, (H-L-Thr--Pro)2 Rho 110 .2TFA]",
    "enzyme activity, Grans": 4.02
  },
  {
    "Compound": "NC(=O)CC[C@H](N)C(=O)N[C@@H](CO)C(=O)Nc1ccc2c(c1)Oc1cc(NC(=O)[C@H](CO)NC(=O)[C@@H](N)CCC(N)=O)ccc1C21OC(=O)c2ccccc21 [QS, (H-L-Gln--Ser)2 Rho 110 .2TFA]",
    "enzyme activity, Grans": 0.19
  },
  {
    "Compound": "C[C@H](N)C(=O)Nc1ccc2c(c1)Oc1cc(NC(=O)[C@H](C)N)ccc1C21OC(=O)c2ccccc21 [ALA, (Ala)2 Rho 110]",
    "enzyme activity, Grans": 236.23
  },
  {
    "Compound": "NCC(=O)N1CCC[C@H]1C(=O)Nc1ccc2c(c1)Oc1cc(NC(=O)[C@@H]3CCCN3C(=O)CN)ccc1C21OC(=O)c2ccccc21 [GP, (H-Gly--Pro)2 Rho .2TFA]",
    "enzyme activity, Grans": 16.42
  },
  {
    "Compound": "CC(C)C[C@H](N)C(=O)NCC(=O)Nc1ccc2c(c1)Oc1cc(NC(=O)CNC(=O)[C@@H](N)CC(C)C)ccc1C21OC(=O)c2ccccc21 [LG]",
    "enzyme activity, Grans": 2.20
  }
]

Hello, the source for this data is patent US5698411A, in case you need it.
